Hi there, I'd appreciate the recorded IC50 for every entry that follows.
Tested on: HCT-116
Assay: cells
Settings: Homo sapiens, HCT-116, 72 h
Description: Antiproliferative activity against human HCT-116 cells incubated for 72 hrs by MTT assay
Number only, in µM; omit the unit.

Item: "COc1ccc(CCNCc2c(OC)cc(Oc3ccc(Nc4ccccc4)cc3)cc2OC)cc1" | IC50: 1.95

Record summary for "COC(=O)c1ccc(Nc2ccc(Oc3cc(OC)c(CNCCc4ccc(C(F)(F)F)cc4)c(OC)c3)cc2)cc1" : reported IC50 = 5.98

Kindly note the recorded IC50 for "CCCc1ccc(Nc2ccc(Oc3cc(OC)c(CNCCc4ccc(C(F)(F)F)cc4)c(OC)c3)cc2)cc1" , which is 3.23

So for "COc1cc(Oc2ccc(Nc3ccc(SC)cc3)cc2)cc(OC)c1CNCCc1ccc(C(F)(F)F)cc1" , the logged IC50 turned out to be 3.79

Recorded result, "COc1cc(Oc2ccc(Nc3ccc(CCO)cc3)cc2)cc(OC)c1CNCCc1ccc(C(F)(F)F)cc1" , IC50: 2.05

Note to self: IC50 recorded for "COc1cc(Oc2ccc(Nc3ccccc3)cc2)cc(OC)c1CNCCc1ccc(N)cc1" was 2.87

Looking up "COc1cc(Oc2ccc(-c3ccccc3)cc2)cc(OC)c1CNCCc1ccc(C(F)(F)F)cc1" , I found its IC50 recorded as 2.8

Data point: "COc1cc(Oc2ccc(-c3ccc(Br)cc3)cc2)cc(OC)c1CNCCc1ccc(C(F)(F)F)cc1" ; IC50 = 2.71

So, "COc1cc(Oc2ccc(Nc3ccccc3)cc2)cc(OC)c1CNCCc1ccc(F)cc1" ? Its IC50 was 3.13

====

Tested on: HCT-116
Experiment: cells
Conditions: Homo sapiens, HCT-116, 72 h
Exercise: for every item that follows, state its recorded IC50.
Express it in µM; write the number only.

Item: "COc1ccc(Nc2ccc(Oc3cc(OC)c(CNCCc4ccc(C(F)(F)F)cc4)c(OC)c3)cc2)cc1OC" | IC50: 1.35

For record "COc1cc(Oc2ccc(Nc3ccc(CCCO)cc3)cc2)cc(OC)c1CNCCc1ccc(C(F)(F)F)cc1" the listed IC50 is 0.64

Kindly note the recorded IC50 for "COc1cc(Oc2ccc(Nc3ccc(C(F)(F)F)cc3)cc2)cc(OC)c1CNCCc1ccc(C(F)(F)F)cc1" , which is 6.46

Value of measured IC50 for the entry "COc1cc(Oc2ccc(Nc3ccc(C(=O)C(F)(F)F)cc3)cc2)cc(OC)c1CNCCc1ccc(C(F)(F)F)cc1" : 2.43

Value of IC50 reported for the molecule "COc1cc(Oc2ccc(Nc3ccc(C#N)cc3)cc2)cc(OC)c1CNCCc1ccc(C(F)(F)F)cc1" is 2.38

The reported value for "COc1ccc(CCNCc2c(OC)cc(Oc3ccc(Nc4ccccc4)cc3)cc2OC)cc1OC" in terms of IC50 is 2.62

The molecule identified as "COc1cc(Oc2ccc(Nc3ccc(Cc4ccccc4)cc3)cc2)cc(OC)c1CNCCc1ccc(C(F)(F)F)cc1" registered its IC50 at 5.21

Record "COc1cc(Oc2ccc(-c3ccc(F)cc3)cc2)cc(OC)c1CNCCc1ccc(C(F)(F)F)cc1" . Reported IC50: 3.77

Just so you know, measured IC50 for "COc1ccc(Nc2ccc(Oc3cc(OC)c(CNCCc4ccc(C(F)(F)F)cc4)c(OC)c3)cc2)cc1C" came out at 5.25

For "COc1cc(Oc2ccc(Nc3ccccc3)cc2)cc(OC)c1CNCCc1ccc(Br)cc1" the molecule record lists IC50 as 2.96

For this molecule ( "COc1cc(Oc2ccc(-c3ccc(C(F)(F)F)cc3)cc2)cc(OC)c1CNCCc1ccc(C(F)(F)F)cc1" ), measured IC50 is 4.7

// "COc1cc(Oc2ccc(Nc3ccc(C(F)(F)F)c(F)c3)cc2)cc(OC)c1CNCCc1ccc(C(F)(F)F)cc1" : IC50 value = 1.74

Looking up "COc1cc(Oc2ccc(Nc3ccc(C)cc3)cc2)cc(OC)c1CNCCc1ccc(C(F)(F)F)cc1" , I see its IC50 listed as 2.13

Memo: "COc1cc(Oc2ccc(Nc3ccccc3)cc2)cc(OC)c1CNCCc1ccc(C)cc1" , reported IC50: 4.01

Query "COc1ccc(Nc2ccc(Oc3cc(OC)c(CNCCc4ccc(C(F)(F)F)cc4)c(OC)c3)cc2)cc1" yields IC50 of 1.91

The molecule listed as "COc1ccc(-c2ccc(Oc3cc(OC)c(CNCCc4ccc(C(F)(F)F)cc4)c(OC)c3)cc2)cc1" shows IC50 equal to 2.62

For reference, reported IC50 for "COc1cc(Oc2ccc(Nc3ccc(-c4ccccc4)cc3)cc2)cc(OC)c1CNCCc1ccc(C(F)(F)F)cc1" stands at 3.85

Reported IC50 ( "COc1cc(Oc2ccc(Nc3ccccc3)cc2)cc(OC)c1CNCCc1ccccn1" ) = 2.76

Input "COc1cc(Oc2ccc(Nc3ccc(Br)cc3)cc2)cc(OC)c1CNCCc1ccc(C(F)(F)F)cc1" . Output IC50: 3.54

For this molecule ( "COc1cc(Oc2ccc(Nc3ccc(F)cc3)cc2)cc(OC)c1CNCCc1ccc(C(F)(F)F)cc1" ), measured IC50 is 3.4

// "COc1cc(Oc2ccc(Nc3ccccc3)cc2)cc(OC)c1CNCCc1ccc(C(F)(F)F)cc1" : IC50 value = 1.75

Per the record, "COc1cc(Oc2ccc(Nc3ccccc3)cc2)cc(OC)c1CNCCc1ccc(Cl)cc1" has IC50 of 4.98

The molecule listed as "CCOc1ccc(Nc2ccc(Oc3cc(OC)c(CNCCc4ccc(C(F)(F)F)cc4)c(OC)c3)cc2)cc1" shows IC50 equal to 3.08

The molecule "CCc1ccc(Nc2ccc(Oc3cc(OC)c(CNCCc4ccc(C(F)(F)F)cc4)c(OC)c3)cc2)cc1" showed IC50 equal to 3.87

Query "O=c1[nH]cc(F)c(=O)[nH]1" yields IC50 of 6.5

# IC50 (molecule: "COc1cc(Oc2ccc(Nc3ccc(Cl)cc3)cc2)cc(OC)c1CNCCc1ccc(C(F)(F)F)cc1" ) is 3.53

Kindly note the recorded IC50 for "COc1cc(Oc2ccc(-c3ccc(Cl)cc3)cc2)cc(OC)c1CNCCc1ccc(C(F)(F)F)cc1" , which is 5.05

Lab note: measured IC50 of "COc1cc(Oc2ccc(Nc3ccc(C(C)(C)C)cc3)cc2)cc(OC)c1CNCCc1ccc(C(F)(F)F)cc1" was 6.48

Record "COc1cc(Oc2ccc(Nc3ccccc3)cc2)cc(OC)c1CNCCc1cccs1" , field IC50: 3.85

// IC50 value for "COc1cc(Oc2ccc(-c3ccc(C)cc3)cc2)cc(OC)c1CNCCc1ccc(C(F)(F)F)cc1" : 2.41

Quick note, IC50 for "COc1cc(Oc2ccc(Nc3ccc(CO)cc3)cc2)cc(OC)c1CNCCc1ccc(C(F)(F)F)cc1" landed at 3.22

Reported IC50 of "COc1cc(Oc2ccc(Nc3ccc(-c4cnc5ccccc5c4)cc3)cc2)cc(OC)c1CNCCc1ccc(C(F)(F)F)cc1" : 3.12

molecule "CCCCc1ccc(Nc2ccc(Oc3cc(OC)c(CNCCc4ccc(C(F)(F)F)cc4)c(OC)c3)cc2)cc1" , IC50 observed: 3.1

What the record says about "COc1cc(Oc2ccc(Nc3ccc(C(F)(F)F)c(C(F)(F)F)c3)cc2)cc(OC)c1CNCCc1ccc(C(F)(F)F)cc1" : IC50 is 1.64

// IC50 value for "COc1cc(Oc2ccc(Nc3ccccc3)cc2)cc(OC)c1CNCCc1ccc(O)cc1" : 3.46
